IC50 values for the compounds below.
- MEASUREMENT_TARGET: UniProt Q15139
- Sequence (Q15139 whole entry): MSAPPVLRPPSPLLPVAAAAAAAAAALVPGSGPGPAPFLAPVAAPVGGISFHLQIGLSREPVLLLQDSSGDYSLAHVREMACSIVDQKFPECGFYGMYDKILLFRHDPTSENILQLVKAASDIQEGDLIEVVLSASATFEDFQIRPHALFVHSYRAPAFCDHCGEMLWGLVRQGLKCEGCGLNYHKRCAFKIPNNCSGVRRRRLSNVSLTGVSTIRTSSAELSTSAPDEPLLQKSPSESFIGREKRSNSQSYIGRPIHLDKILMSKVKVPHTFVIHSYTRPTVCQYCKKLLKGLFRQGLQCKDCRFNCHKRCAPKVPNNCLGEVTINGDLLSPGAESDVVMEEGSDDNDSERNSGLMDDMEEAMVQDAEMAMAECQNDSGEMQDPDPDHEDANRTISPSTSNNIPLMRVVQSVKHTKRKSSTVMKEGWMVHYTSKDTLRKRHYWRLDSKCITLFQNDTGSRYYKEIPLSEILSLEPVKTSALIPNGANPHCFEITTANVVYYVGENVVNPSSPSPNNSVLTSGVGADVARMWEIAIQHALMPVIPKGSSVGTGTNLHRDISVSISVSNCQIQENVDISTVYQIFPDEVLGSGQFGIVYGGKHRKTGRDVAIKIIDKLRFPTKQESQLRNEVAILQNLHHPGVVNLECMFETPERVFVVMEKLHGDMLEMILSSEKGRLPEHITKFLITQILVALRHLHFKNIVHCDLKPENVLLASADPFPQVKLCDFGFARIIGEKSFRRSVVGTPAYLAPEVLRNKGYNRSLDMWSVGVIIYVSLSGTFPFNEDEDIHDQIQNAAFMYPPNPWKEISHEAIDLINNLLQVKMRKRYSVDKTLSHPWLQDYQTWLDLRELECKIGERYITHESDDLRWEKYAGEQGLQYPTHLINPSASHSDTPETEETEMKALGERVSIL
- PROTOCOL: In vitro radiometric PKD kinase activity assay
- Type: biochemical
- Set-up: purchased Biomol International
- ASSAY_CONTEXT: in vitro; read-out: PKD1 IC50
Please respond with the number in nM and leave the unit unwritten.

Here are 2 compounds together with their reported answers.
INSERT INTO measurements (smiles, measurement_target, measured_number) VALUES
  ('[N-]=[N+]=Nc1ccc2sc3c(c2c1)SCCNC3=O', 'UniProt Q15139', 74.9),
  ('COc1ncc2sc3c(c2n1)SCCNC3=O', 'UniProt Q15139', 124);

Now for another entry.
*Q* Please give the measured IC50 for this compound: O=C1NCCSc2c1sc1ccc(O)c(I)c21
*A* 114
